Assay: HILIC, Waters ACQUITY UPLC BEH Amide, 100 × 2.1 mm, 1.7 µm; A: water + 0.125% formic acid + 10 mM ammonium formate; B: 5% water + 95% acetonitrile + 0.125% formic acid + 10 mM ammonium formate; gradient (min/%B) 0/100 2/100 7.7/70 9.5/40 10.25/30 12.75/100 17/100
Conditions: stereoisomer not certain
readout: LC retention time (min)

As a guide, the following entries are already answered.
{"compound": "Cc1nc2n(c(=O)c1CCN1CCC(c3noc4cc(F)ccc34)CC1)CCCC2", "readout": "LC retention time", "readout-value": 3.52}
{"compound": "NCC(O)c1ccccc1 (stereo not given)", "readout": "LC retention time", "readout-value": 5.51}
{"compound": "OCC1OCC(O)C(O)C1O (stereo not given) [1,5-Anhydrosorbitol]", "readout": "LC retention time", "readout-value": 0.92}
{"compound": "CC(=O)N[C@@H](CCCCN)C(=O)O", "readout": "LC retention time", "readout-value": 8.15}
{"compound": "COc1nc(C)nc(Cl)c1NC1=NCCN1", "readout": "LC retention time", "readout-value": 3.28}
{"compound": "CCCc1c(OCCCCc2nn[nH]n2)ccc(C(C)=O)c1O", "readout": "LC retention time", "readout-value": 1.04}
{"compound": "O=c1c(-c2ccc(O)cc2)coc2cc(O)ccc12", "readout": "LC retention time", "readout-value": 1.39}

(P) Cc1ccnc2c1NC(=O)c1cccnc1N2C1CC1
(Q) CCCNC1CCc2nc(N)sc2C1 (stereo not given) [Pramipexole]
(R) O=c1[nH]c(=O)c2nccnc2[nH]1
Reorder the items by LC retention time, least to greatest. # respond with the labels, arranged in the requested order
P, R, Q
(P: 1.16 min, R: 2.49 min, Q: 5.7 min)

* * *

Assay: HILIC, Waters ACQUITY UPLC BEH Amide, 100 × 2.1 mm, 1.7 µm; A: water + 0.125% formic acid + 10 mM ammonium formate; B: 5% water + 95% acetonitrile + 0.125% formic acid + 10 mM ammonium formate; gradient (min/%B) 0/100 2/100 7.7/70 9.5/40 10.25/30 12.75/100 17/100
Conditions: stereoisomer not certain
readout: LC retention time (min)

As a guide, the following entries are already answered.
{"molecule": "Nc1ncnc2c1ncn2C1CC(O)C(CO)O1 (centres undefined)", "measurement-unit": "min", "LC retention time": 3.92}
{"molecule": "CC(c1ncncc1F)C(O)(Cn1cncn1)c1ccc(F)cc1F (centres undefined)", "measurement-unit": "min", "LC retention time": 1.02}
{"molecule": "CC(C)=CCCC(C)=CC(=O)O", "measurement-unit": "min", "LC retention time": 1.3}
{"molecule": "COc1ccc2c3c1OC1C(=O)CCC4(O)C(C2)N(C)CCC314 (centres undefined)", "measurement-unit": "min", "LC retention time": 4.58}
{"molecule": "O=c1cc[nH]c2ccccc12 [4-Hydroxyquinoline]", "measurement-unit": "min", "LC retention time": 1.69}

(1) COc1ccc2nc(S(=O)Cc3ncc(C)c(OC)c3C)[nH]c2c1 (centres undefined)
(2) CC12CCC3c4ccc(O)cc4CCC3C1CC(OC1OC(C(=O)O)C(O)C(O)C1O)C2O (centres undefined) [16-Glucuronide-estriol]
(3) NNCCc1ccccc1
Reorder the items by LC retention time, least to greatest. # respond with the labels, arranged in the requested order
1, 3, 2
(1: 1.35 min, 3: 4.45 min, 2: 6.49 min)

* * *

Assay: HILIC, Waters ACQUITY UPLC BEH Amide, 100 × 2.1 mm, 1.7 µm; A: water + 0.125% formic acid + 10 mM ammonium formate; B: 5% water + 95% acetonitrile + 0.125% formic acid + 10 mM ammonium formate; gradient (min/%B) 0/100 2/100 7.7/70 9.5/40 10.25/30 12.75/100 17/100
Settings: stereoisomer not certain
readout: LC retention time (min)

{"compound": "CC(=O)C1(O)Cc2c(O)c3c(c(O)c2C(OC2CC(N)C(O)C(C)O2)C1)C(=O)c1ccccc1C3=O (stereo not given) [Idarubicin]", "measurement-unit": "min", "LC retention time": 5.42}
{"compound": "NC1CCCCC1 [Cyclohexanamine]", "measurement-unit": "min", "LC retention time": 5.1}
{"compound": "Nc1ccccc1O [2-Aminophenol]", "measurement-unit": "min", "LC retention time": 1.22}
{"compound": "CC1CN(CCCn2c3ccccc3c3ccccc32)CC(C)N1 (stereo not given) [Rimcazole]", "measurement-unit": "min", "LC retention time": 2.87}
{"compound": "COc1cccc(C2(O)CCCCC2CN(C)C)c1 (stereo not given) [Tramadol]", "measurement-unit": "min", "LC retention time": 2.52}
{"compound": "CC(C)C(NC(=O)C(N)CCC(=O)O)C(=O)NC(Cc1ccccc1)C(=O)O (stereo not drawn) [Glu-Val-Phe]", "measurement-unit": "min", "LC retention time": 7.66}
{"compound": "CCN(C(C)=O)c1cccc(-c2ccnc3c(C#N)cnn23)c1 [Zaleplon]", "measurement-unit": "min", "LC retention time": 1.02}
{"compound": "NC(=O)N1c2ccccc2C=Cc2ccccc21 [Carbamazepine]", "measurement-unit": "min", "LC retention time": 1.21}

(1) CC1(C)SC2C(N=CN3CCCCCC3)C(=O)N2C1C(=O)O (stereo not given) [Mecillinam]
(2) O=c1c(-c2ccccc2)c1-c1ccccc1 [Diphenylcyclopropenone]
(3) CC(=O)Nc1ccc(OC2OC(C(=O)O)C(O)C(O)C2O)cc1 (stereo not given) [Acetaminophen glucuronide]
(4) Cc1ncc(CO)c(C=O)c1O [Pyridoxal]
Sort by LC retention time, descending. # respond with the labels, arranged in the requested order
3, 1, 4, 2

(I) Nc1ncnc2c1ncn2C1CC(O)C(COP(=O)(O)O)O1 (stereo not given) [2'-Deoxyadenosine-5'-monophosphate]
(II) COC(=O)Nc1nc2ccc(C(=O)c3ccc(F)cc3)cc2[nH]1 [Flubendazole]
Which record shows the lower LC retention time: the first, I , or the second, II ? Write the label of whichever entry you select.
II

(P) COc1c2ccoc2cc2oc(=O)ccc12 [5-Methoxypsoralen]
(Q) O=c1n(CCCN2CCN(c3cccc(Cl)c3)CC2)nc2ccccn12 [Trazodone]
(R) Cc1[nH]cnc1CN1CCc2c(c3ccccc3n2C)C1=O [Alosetron]
Sort by LC retention time, descending. # respond with the labels, arranged in the requested order
R, Q, P
(R: 4.19 min, Q: 2.38 min, P: 1.07 min)

(P) CCN(CC)CC1CCCCN1CC(=O)N1c2ccccc2C(=O)Nc2cccnc21 (stereo not given) [Otenzepad]
(Q) CCCC(=O)OCC [Ethylbutanoate]
(R) Nc1ccc(C(=O)O)cc1 [4-Aminobenzoic acid]
(S) COc1cc(C=O)ccc1O [Vanillin]
Reorder the items by LC retention time, least to greatest. # respond with the labels, arranged in the requested order
S, P, Q, R

* * *

Assay: HILIC, Waters ACQUITY UPLC BEH Amide, 100 × 2.1 mm, 1.7 µm; A: water + 0.125% formic acid + 10 mM ammonium formate; B: 5% water + 95% acetonitrile + 0.125% formic acid + 10 mM ammonium formate; gradient (min/%B) 0/100 2/100 7.7/70 9.5/40 10.25/30 12.75/100 17/100
Conditions: stereoisomer not certain
readout: LC retention time (min)

{"compound": "CC(O)CC(=O)OC(CC(=O)[O-])C[N+](C)(C)C (stereo not given) [3-Hydroxybutyrylcarnitine]", "LC retention time, min": 7.62}

(1) Cc1ncc(CO)c(C(=O)O)c1O [4-Pyridoxic acid]
(2) NC(CCS)C(=O)O (stereo not given) [Homocysteine]
(3) O=C(O)CCc1nc(-c2ccccc2)c(-c2ccccc2)o1 [Oxaprozin]
(4) NC(=O)c1cccnc1 [Nicotinamide]
Reorder the items by LC retention time, least to greatest. # respond with the labels, arranged in the requested order
3, 4, 1, 2

(a) Nc1ccn(C2CCC(CO)O2)c(=O)n1 (stereo not given) [2,3-Dideoxycytidine]
(b) CN(C)CCC=C1c2ccccc2COc2ccccc21 [Doxepin]
(c) CC(C)CC(NC(=O)CCC(N)C(=O)O)C(=O)O (stereo not given) [gamma-Glutamylleucine]
(d) CC(=O)Oc1ccc2c(C)cc(=O)oc2c1 [4-Methylumbelliferyl acetate]
Reorder the items by LC retention time, least to greatest. # respond with the labels, arranged in the requested order
d, b, a, c

(I) COc1ccc(-c2cc(=O)c3c(OC)c(OC)c(OC)c(OC)c3o2)cc1OC [Nobiletin]
(II) NCc1[nH]cc(CCC(=O)O)c1CC(=O)O [Porphobilinogen]
(III) O=c1[nH]c(=S)ccn1C1OC(CO)C(O)C1O (stereo not given) [4-Thiouridine]
Sort by LC retention time, descending. # respond with the labels, arranged in the requested order
II, III, I

(A) CCC(O)CC(=O)O (stereo not given) [3-Hydroxyvaleric acid]
(B) CC(=O)CC(C)(C)O [4-Hydroxy-4-methyl-2-pentanone]
Exercise: compare A and B ; which one has the greater LC retention time? Write the label of whichever entry you select.
B
(B: 4.88 min, A: 1.29 min)
